test.method.notes: yeast display, Sf9 membrane polyspecificity reagent, FACS + sequencing; frameworks hold sequencing errors
parameter.measured: polyreactivity (PSR sort gate)

INSERT INTO results (sequence_data, observed_value) VALUES
  ('QVQLVESGGGLVQAGGSLRLSCAASGRIFVNYAMGWYRQAPGKEREFVAGIRVNGGSTYYADSVKGRFTISRDNAKNTVYLQMNSLKPEDTAVYYCAKAYPGTYREYDYWGQGTQVTVSS', 'high polyreactivity'),
  ('QVQLVESGGGLVQAGGSLRLSCAASGSTFYAYAMGWYRQAPGKERELVAAIDSGGSTYYADSVKGRFTISRDNAKNTFYLEMNSLKPEDTAVYYCAVRHRYTRAYWGRDYWGQGTQVTVSS', 'low polyreactivity'),
  ('QVQLVESGGGLVQAGGSLRLSCAASGRIFRSYAMGWYRQAPGKERELVAAITWSGGSTYYADSVKGRFTISRDNAKNTVYLQMDSLKPEDTAVYYCARVVTKKYSHTGYEYWGQGTQVTVSS', 'high polyreactivity'),
  ('QVQLVESGRGLVQAGGSLRLSCAASGRIFYYAMGWYRQAPGKERELVAAITRSGGRTYYADSVKGRFTISRDNEKNTVYLQMNSLKPEDTAVYDCAADYGAQLWGYYPTFDYWGQGTQVTVSS', 'high polyreactivity'),
  ('QVQLVESGGGLVQAGGSLRLSCAASGYIWYYAMGWSRQAPGKERELVAAISWGGGSTYYADSVKGRFTISRDNAKNTVYLQMNSLKPEDTAVYYCATRCIPDDNARDYWGQGTQVTVSS', 'low polyreactivity'),
  ('QVQLVESGGGLVQAGGSLSLSCAASGRTFWVYAMGWYRQAPGKERELVAAIRRGGITNYADSVKGRFTNSRDNAKNTVYLQMNCLKPEDTALYYCDTDKYGYLTRYYYWGQGTQVTVSS', 'low polyreactivity'),
  ('QVQLVESGGGLVQAGCSLRLSCAASGRIFYYYAMGWYRQAPGKERELVADITWSGGSTYYADSVKGRFTISRDNAKNTVYLQMNSLKPEDTAVYYCNAVYFNYLLEYDYWGQGTQVTVSS', 'high polyreactivity'),
  ('QVQLVESGGGLVQAGGSLRLSCAASGRIFPINVMGWYRQAPGKERELVAAISGRGGSTYYADSVKGRFTISRDNAKNTVYLQMNSLKPEDTAVYYCAARSPYRYYYWGQGTQVTVSS', 'high polyreactivity'),
  ('QVQLVESGGGLVQAGGSLRLSCAASGRIFNQYAMGWYIQAPGKERELVAAISRRGGSTYYADSVKGRFTISRDNAKNTVYLQMNSLKPEDTAVYYCAAVGGYASYFHLYYYWGQGTQVTVSS', 'high polyreactivity'),
  ('QVQLVESGGGLVQAGGSLRLSCAASGRTFVRYAMGRYRQAPGKERELVAAISGDGASTYYADSVKGRFTISRDNAKNTVYLQMNSLKPEDPAVYYCNARSIRRYYYPDYDYWGQGTQVTVSS', 'high polyreactivity'),
  ('QVQLVESVGGLVQAGGSLRLSCAASGRTFVGNTMGWYRQAPGKERELVAAISGSGSRTYYADSVKGRFTISRDNAKNTVYLQMNSLKPEDTGVYYCASQGNYWGQGTQVTVSS', 'high polyreactivity'),
  ('QVQLVESGGGLVQAGGSLRLSCAASGRTFFYYSMGWYRQAPGKERELVATITKRGGSTYYADSVKGRFTISRDNAKNTVYLQMNSLKPEDTAVYYCNATLGRTTAVFKYYWGQGTQVTVSS', 'high polyreactivity'),
  ('QVQLVESGGGLVQAGVSLRLSCAASGSIFQTYDMGWYRQAPGKERELVAAITGSGDSTYYADSVKGRFTISRDNAKNTVYLQMNSLKPEDTAVYYCNADGPSTPWVEYGYWGQGTQVTVSS', 'low polyreactivity'),
  ('QVQLVESGGGLVQAGGIHRLSCASTGRTFPAYAMGWYRQAPGKERELVAAITINGGYTYYADSVKGRFTISRDNAKNSVYLQMKSLKPEDTAVYYCAAYYDSPSHGYWGQVTQVTVSS', 'low polyreactivity'),
  ('QVQLVESGGGVDQAGGSLRLSCAASGSTFHLYAMGCYRQAPGKERESVAAIRGRGGNTYADSVKGRFTISRDNAYNTVYLQMNSLKPEDTAVYYCAAPLLRDLRSPYSYNYWVQGTQVTVSS', 'low polyreactivity'),
  ('QVQHVESGGGLVQAGGSLLLSCAASGSIFASYAMGWYRQAPGKEREFVASISRSGGRTYYADSVKGRFTISRDNAKNTVYLQMKSLKPEDTAVYYCAAQPSSYVYYRQPFHYWGQGTQVTVSS', 'high polyreactivity'),
  ('QVQLVESGGGLVQAGGSLRLSCAASGGTFYFYAMGWYRQAPGKERELVATITRGGSTYYADSVKGRFTISRDNAKNTVYLQMNSLKPEDTAVYYCAARQYSRRRSPVSTWYYYWGQGTQVTVSS', 'high polyreactivity'),
  ('QVQLEESGGGLVQAGGSLRLSCAASGSTFFIYAMGWYRQAPGKERELVAVIRNIDVRTYYADSVKGRFTISRDNAKNTVYLQMNSLKPEDTAVYYCAADELLDESVDMYYWGQGTQVTVSS', 'low polyreactivity'),
  ('QVQLVESGGGLVQAGGSLRLSCAASGRIFRYYAMGWYRQAPGKERELVAAISSGVGNTYYADSVKWRFTISRDNAKNTVYLQKNSLKPEDTAVYYCNAKWRKFGTVRYDYWGQGTQVTVSS', 'high polyreactivity'),
  ('QVQLVESGGGLVQAGGSLRLSCDASGSIYRLNAMGWYRQAPGKEMELVAAITWSDSSTYYADSVKGRFTISRDNAKYTVYLQMNSLKPEDTAVYYCAADPQSYKYDYWGQGTQVTVSS', 'low polyreactivity'),
  ('QEQLQESGGGQVQAGGSLLLSCAASGNIIRYYYMGWYRQAPGKERELVAAINVGAITYYADSVKGRFSISRDNAKNTVYLPMNSLTPEDTAVYYCAVDQYSEAYYDYWGQGTQATVSS', 'high polyreactivity');

====

test.method.notes: yeast display, Sf9 membrane polyspecificity reagent, FACS + sequencing; frameworks hold sequencing errors
parameter.measured: polyreactivity (PSR sort gate)

INSERT INTO measurements (sequence_data, observed_value) VALUES
  ('QDQLVESGGGLVQAGGSLRLICAASGFTFRWYSMGWYRQAPGKERELVADISRGGSTNYADSVKGRFTISRDHAKNSVYLQMNSLTPEDTAVFYCAATQRKYGYKSYYYWGQGTQVTVSS', 'high polyreactivity'),
  ('QVQLVESGGGLVQAGGSLRLSCAASGRTFQGYAMGWYRQATGKERELVAAISRSGGRTYYADSVKGRFTISRDNAKNTVYLQMNSLKPEDTAVYYCATDAFRDYGYWGQGTQVTVSS', 'high polyreactivity'),
  ('QVQLVESGGGLVQAGGSLRLSCASYGYTFFNYAKGWYRQAPGKERELVAAITTGGSTYYADSVKGRFTISRDNAKNTVYLQMNSLKPEDTAVYYCPFDYWGQGTQVTVSS', 'high polyreactivity'),
  ('QVQLVESGGGLVQAGGSLRLSCAASGSTFLYNAMGWYRQAPGKERELVAAITIGGGSTYYADSVKGRFTISRDNAKNTVYLQMNSLKPEDTAVYYCNKGSYYWWDPGSTYIDDYWGQGTQVTVSS', 'low polyreactivity'),
  ('QVQLVESGGGLVQAGGSLRLSCAASGSTLGYNVMGWYRQAPGKERELVAAISGDGSTNYADSVNGRFTMSRDNAKNTVYLQMNSLKPEDTAVYYCNAPFWGYRTSFSYPVVLRFDYWGQGTQVTVSS', 'low polyreactivity');

====

test.method.notes: yeast display, Sf9 membrane polyspecificity reagent, FACS + sequencing; frameworks hold sequencing errors
parameter.measured: polyreactivity (PSR sort gate)

INSERT INTO assay_data (sequence_data, observed_value) VALUES
  ('QVQVVESGGGLVQAGGSLRLSCAASGSIFHNNAMGWYRQAPGKERELVASITSRGGSTYYADSVKGRFTISRDNAKNTVYLQMNSLKPEDTAVYYCAARPYARVKTHGYWGQGTQVSVSS', 'low polyreactivity'),
  ('QVQLVESGGGLVQAGGSLRLSCAASGYTFSRYAMGWYRQAPGKERELVAAITGRGGSTYYADSVKGRFTISRDNAKNTVYLQMNSLKPEDTAVYYCAAPFGWRPLPISKVTSDYWGQGTQVTVSS', 'high polyreactivity'),
  ('QVQLVESGGGLVHAGGSLRLSCAASGRISFYYALGWYRQAPGKERALVATISRGDITYYADSVKGRFTISRDNAKNTVYLQLNSLKPEDTAVYYCNARNNYWWYGPGYVYWGQGTQVTVSS', 'low polyreactivity'),
  ('QVQLVESGGGLVQAGGSLRLSCAASGSTSPAYAMGWYRQAPGKERELVAVITGSGASTYYADSVKGRFTISRDNAKNTVYLQMNSLKPEDTAVYYCAADVGFGVVFYDYWGQGTQVTVSS', 'low polyreactivity'),
  ('QDQLVDSGAGLLQAGGSLRLSCAASGFTFYGYAMGWYRQAPGKERELVASISWSGGTTYYADSVKGRFTISRDNAKNTVYLQMNSLKPEDTAVYYCNAVRYRYGVFPYYYWGQGTQVTESS', 'high polyreactivity');
